Test: Half life in BALB/c mouse at 5 mg/kg, iv measured up to 24 hrs by LC-MS/MS analysis
Type: ADME, organism-based
Conditions: in vivo
readout-label: half-life (min)
Express it in min; write the number only.

I would be grateful if you could share the reported half-life for CC1(C)C(=O)N(Cc2c(F)cccc2Cl)c2cc(C(=O)NCc3c(F)cc(F)cc3F)ccc21 . 84.6

###

Test: Oral bioavailability in BALB/c mouse at 10 mg/kg measured up to 24 hrs by LC-MS/MS analysis
Assay type: ADME, organism-based
Details: in vivo
readout-label: bioavailability (%)
Express it in %; write the number only.

I would be grateful if you could share the reported bioavailability for CC1(C)C(=O)N(Cc2c(F)cccc2Cl)c2cc(C(=O)NCc3c(F)cc(F)cc3F)ccc21 . 86

###

Target: Stimulator of interferon genes protein (Homo sapiens)
Sequence (Q86WV6 whole entry): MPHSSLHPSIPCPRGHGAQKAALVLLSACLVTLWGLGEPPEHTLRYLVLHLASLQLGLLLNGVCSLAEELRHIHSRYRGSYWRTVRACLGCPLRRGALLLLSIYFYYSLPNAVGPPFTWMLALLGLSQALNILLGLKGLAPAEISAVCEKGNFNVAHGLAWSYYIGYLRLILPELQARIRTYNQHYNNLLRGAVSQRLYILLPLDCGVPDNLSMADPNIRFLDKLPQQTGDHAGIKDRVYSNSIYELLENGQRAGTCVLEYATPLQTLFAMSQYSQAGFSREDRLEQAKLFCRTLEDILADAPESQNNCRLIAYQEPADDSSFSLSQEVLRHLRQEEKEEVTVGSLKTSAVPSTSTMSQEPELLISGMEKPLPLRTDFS
Test: Activation of wild-type human STING expressed in HEK293T cells assessed as IRF3 reporter activation at 1 uM measured after 20 hrs by luciferase reporter gene assay
Assay type: cell-based
Conditions: filed as activator
readout-label: Activity (%)
Express it in %; write the number only.

I would be grateful if you could share the reported Activity for CC1Cc2ccc(C(=O)NCc3c(F)cc(F)cc3F)cc2N(Cc2c(F)cccc2Cl)C1=O (racemic) . 92

Then this compound: CC1Cc2ccc(C(=O)NCc3c(F)cc(F)cc3F)cc2N(Cc2cc(F)cc(F)c2)S1(=O)=O (racemic) 40

Then this compound: O=C(NCc1c(F)cc(F)cc1F)c1ccc2c(c1)N(Cc1c(F)cccc1Cl)C(=O)CC2 107

Then this compound: CC1(C#N)C(=O)N(Cc2c(F)cccc2Cl)c2cc(C(=O)NCc3c(F)cc(F)cc3F)ccc21 (racemic) 102

Then this compound: CC1(C)CC(=O)N(Cc2cc(F)cc(F)c2)c2cc(C(=O)NCc3c(F)cc(F)cc3F)ccc21 102

Then this compound: CC1(C)C(=O)N(Cc2ccccc2F)c2cc(C(=O)NCc3c(F)cc(F)cc3F)ccc21 116

Then this compound: CC1Oc2ccc(C(=O)NCc3c(F)cc(F)cc3F)cc2N(Cc2cc(F)cc(F)c2)C1=O (racemic) 95

###

Assay: Volume of distribution in BALB/c mouse at 5 mg/kg, iv measured up to 24 hrs by LC-MS/MS analysis
Format: ADME, organism-based
Settings: in vivo
readout-label: Vd (L/kg)
Express it in L/kg; write the number only.

I would be grateful if you could share the reported Vd for CC1(C)C(=O)N(Cc2c(F)cccc2Cl)c2cc(C(=O)NCc3c(F)cc(F)cc3F)ccc21 . 2.69

###

Biological target: hERG (KCNH2) (Homo sapiens, UniProt Q12809)
Sequence (Q12809 whole entry): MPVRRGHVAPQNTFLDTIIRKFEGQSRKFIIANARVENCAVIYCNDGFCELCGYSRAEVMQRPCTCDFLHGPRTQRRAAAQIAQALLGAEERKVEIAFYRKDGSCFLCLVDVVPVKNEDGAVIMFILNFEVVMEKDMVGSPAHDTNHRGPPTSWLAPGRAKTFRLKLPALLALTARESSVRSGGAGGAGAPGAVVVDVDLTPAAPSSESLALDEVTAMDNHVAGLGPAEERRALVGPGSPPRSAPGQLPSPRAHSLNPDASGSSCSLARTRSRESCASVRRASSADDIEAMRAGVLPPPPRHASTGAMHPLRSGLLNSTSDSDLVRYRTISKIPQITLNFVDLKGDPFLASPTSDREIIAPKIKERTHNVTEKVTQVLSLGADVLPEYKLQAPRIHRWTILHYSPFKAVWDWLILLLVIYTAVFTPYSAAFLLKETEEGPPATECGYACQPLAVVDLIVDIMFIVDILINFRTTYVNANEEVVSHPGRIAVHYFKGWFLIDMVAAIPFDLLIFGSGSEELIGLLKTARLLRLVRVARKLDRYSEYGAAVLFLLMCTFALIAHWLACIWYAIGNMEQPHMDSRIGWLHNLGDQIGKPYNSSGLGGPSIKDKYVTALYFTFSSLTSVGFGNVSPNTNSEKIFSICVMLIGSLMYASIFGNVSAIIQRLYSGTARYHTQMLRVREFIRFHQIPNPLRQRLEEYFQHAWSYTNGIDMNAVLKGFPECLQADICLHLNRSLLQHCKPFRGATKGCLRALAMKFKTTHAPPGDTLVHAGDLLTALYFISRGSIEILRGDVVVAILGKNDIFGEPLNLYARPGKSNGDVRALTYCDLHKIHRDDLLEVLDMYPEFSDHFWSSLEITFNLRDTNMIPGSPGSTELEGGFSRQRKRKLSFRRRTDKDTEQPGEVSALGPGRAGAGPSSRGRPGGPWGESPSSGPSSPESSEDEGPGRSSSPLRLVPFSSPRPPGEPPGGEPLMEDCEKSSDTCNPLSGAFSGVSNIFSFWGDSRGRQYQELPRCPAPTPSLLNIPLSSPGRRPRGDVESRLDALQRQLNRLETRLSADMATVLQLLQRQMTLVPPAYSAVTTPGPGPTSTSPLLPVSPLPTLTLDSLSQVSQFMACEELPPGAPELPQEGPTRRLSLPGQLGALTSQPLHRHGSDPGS
Assay: Inhibition of human ERG at 10 uM
readout-label: inhibition at 10 µM (%)
Express it in %; write the number only.

I would be grateful if you could share the reported inhibition at 10 µM for CC1(C)C(=O)N(Cc2c(F)cccc2Cl)c2cc(C(=O)NCc3c(F)cc(F)cc3F)ccc21 . 20

Values from ChEMBL document CHEMBL4732051
